Provenance of the data: patent US8232283B2

Recorded measurements of IC50, one per entry
- System: HT-29 [B-Raf V600E mutant]
- Protocol Summary: Anti-proliferative activity, SRB assay, 72 hours
- Type: cell-based
- Condition Details: Homo sapiens, read-out: CELLULAR IC50 [μM] HT-29 [B-Raf V600E mutant]

A selection of reference data follows.
INSERT INTO measurements (smiles_notation, measured_metric, value_reported) VALUES
  ('COn1c(=O)c(-c2cc(NC(=O)c3ccc(Cl)c(Cl)c3)ccc2Cl)cc2cnc(NCCN(C)C)nc21', 'IC50', '< 5 µM'),
  ('COn1c(=O)c(-c2cc(NC(=O)c3ccccc3Cl)ccc2Cl)cc2cnc(NCCN(C)C)nc21', 'IC50', '> 10 µM'),
  ('COc1ccc(NC(=O)Nc2ccc(Cl)c(-c3cc4cnc(NCCN(C)C)nc4n(OC)c3=O)c2)cc1Cl', 'IC50', '< 10 µM'),
  ('COn1c(=O)c(-c2cc(NC(=O)c3cc(C(C)(C)C)n[nH]3)ccc2Cl)cc2cnc(NCCN(C)C)nc21', 'IC50', '> 10 µM'),
  ('COn1c(=O)c(-c2ccc(NC(=O)c3ccc(CN4CCN(C)CC4)cc3)cc2Cl)cc2cnc(NCCN(C)C)nc21', 'IC50', '> 10 µM');

Continue with the compound presented below.
Prompt: Lab request: please report IC50 under test system HT-29 [B-Raf V600E mutant] for `COn1c(=O)c(-c2cc(NC(=O)Nc3cccc(C(F)(F)F)c3F)ccc2Cl)cc2cnc(NCCN(C)C)nc21`
Completion: < 5 µM

----------
Recorded measurements of inhibition, one per entry
- System Under Test: p38 (Homo sapiens)
- Construct: purchased Proteros biostructures GmbH (selectivity panel service)
- Sequence (Q16539 whole entry): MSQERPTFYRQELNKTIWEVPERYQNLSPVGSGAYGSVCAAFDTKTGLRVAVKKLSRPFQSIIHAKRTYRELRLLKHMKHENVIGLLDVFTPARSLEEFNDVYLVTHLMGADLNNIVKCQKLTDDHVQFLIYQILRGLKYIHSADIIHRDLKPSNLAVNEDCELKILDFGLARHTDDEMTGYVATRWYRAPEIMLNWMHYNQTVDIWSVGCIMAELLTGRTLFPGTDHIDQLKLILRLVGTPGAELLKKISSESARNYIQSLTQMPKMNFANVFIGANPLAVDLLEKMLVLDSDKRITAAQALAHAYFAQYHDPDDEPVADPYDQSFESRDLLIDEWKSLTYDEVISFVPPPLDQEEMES
- Protocol Summary: Biochemical inhibition, standard selectivity panel (Proteros)
- Parameters: dose or concentration left out as unconfirmed

A selection of reference data follows.
INSERT INTO measurements (compound, value_reported) VALUES
  ('COn1c(=O)c(-c2cc(NC(=O)c3cc(F)cc(C(F)(F)F)c3)ccc2Cl)cc2cnc(NCCN(C)C)nc21 [Compound 28]', '> 70%'),
  ('COn1c(=O)c(-c2cc(NC(=O)Nc3cccc(Cl)c3)ccc2Cl)cc2cnc(NCCN(C)C)nc21 [Compound 43]', '> 70%');

Continue with the compound presented below.
Prompt: // returns reported inhibition for input CCN(CC)c1cc(C(=O)Nc2ccc(Cl)c(-c3cc4cnc(NCCN(C)C)nc4n(OC)c3=O)c2)cc(Cl)n1 [Compound 8]
Completion: > 70%

----------
- System Under Test: C-Raf (Homo sapiens, UniProt P04049)
- Construct: purchased Proteros biostructures GmbH (selectivity panel service)
- Sequence (P04049 whole entry): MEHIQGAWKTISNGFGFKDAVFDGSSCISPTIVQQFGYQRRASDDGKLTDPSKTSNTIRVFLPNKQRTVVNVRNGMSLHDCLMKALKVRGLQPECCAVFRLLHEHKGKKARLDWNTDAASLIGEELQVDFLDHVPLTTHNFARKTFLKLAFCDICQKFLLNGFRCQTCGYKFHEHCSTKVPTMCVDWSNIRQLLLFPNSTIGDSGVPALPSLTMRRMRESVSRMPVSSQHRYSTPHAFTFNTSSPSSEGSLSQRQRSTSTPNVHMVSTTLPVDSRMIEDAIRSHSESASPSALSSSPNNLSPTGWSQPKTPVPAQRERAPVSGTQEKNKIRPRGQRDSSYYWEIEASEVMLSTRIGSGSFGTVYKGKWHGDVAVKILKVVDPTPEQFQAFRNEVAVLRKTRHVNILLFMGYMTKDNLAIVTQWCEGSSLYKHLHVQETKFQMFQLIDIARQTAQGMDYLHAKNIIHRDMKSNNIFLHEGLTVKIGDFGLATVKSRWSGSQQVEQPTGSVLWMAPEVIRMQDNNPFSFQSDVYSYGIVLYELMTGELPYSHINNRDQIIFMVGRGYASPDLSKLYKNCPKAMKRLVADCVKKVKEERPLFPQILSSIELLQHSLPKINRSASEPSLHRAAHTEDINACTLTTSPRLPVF
- Protocol Summary: Biochemical inhibition, standard selectivity panel (Proteros)
- Design: dose or concentration left out as unconfirmed
Measured Metric: inhibition

A selection of reference data follows.
INSERT INTO results (compound, measured_metric, value_reported) VALUES
  ('COn1c(=O)c(-c2cc(NC(=O)Nc3ccc(C)c(C(F)(F)F)c3)ccc2Cl)cc2cnc(NCCN(C)C)nc21 [Compound 47]', 'inhibition', '> 70%'),
  ('COc1ccc(NC(=O)Nc2ccc(Cl)c(-c3cc4cnc(NCCN(C)C)nc4n(OC)c3=O)c2)cc1Cl [Compound 4]', 'inhibition', '> 70%'),
  ('COn1c(=O)c(-c2cc(NC(=O)c3cc(Cl)nc(N4CCOCC4)c3)ccc2Cl)cc2cnc(NCCN(C)C)nc21 [Compound 61]', 'inhibition', '> 70%'),
  ('COn1c(=O)c(-c2cc(NC(=O)Nc3cc(C(F)(F)F)cc(C(F)(F)F)c3)ccc2Cl)cc2cnc(NCCN(C)C)nc21 [Compound 50]', 'inhibition', '> 70%'),
  ('COn1c(=O)c(-c2cc(NC(=O)Cc3ccc(Cl)c(C(F)(F)F)c3)ccc2Cl)cc2cnc(NCCN(C)C)nc21 [Compound 16]', 'inhibition', '> 70%'),
  ('COn1c(=O)c(-c2cc(NC(=O)c3ccc(Cl)c(Cl)c3)ccc2Cl)cc2cnc(NCCN(C)C)nc21 [Compound 10]', 'inhibition', '> 70%'),
  ('COn1c(=O)c(-c2cc(NC(=O)c3ccc(Oc4ccccc4)cc3)ccc2Cl)cc2cnc(NCCN(C)C)nc21 [Compound 27]', 'inhibition', '> 70%'),
  ('COn1c(=O)c(-c2cc(NC(=O)Nc3ccc(C(F)(F)F)cc3)ccc2Cl)cc2cnc(NCCN(C)C)nc21 [Compound 41]', 'inhibition', '> 70%'),
  ('COn1c(=O)c(-c2cc(NC(=O)Nc3ccc(F)c(C(F)(F)F)c3)ccc2Cl)cc2cnc(NCCN(C)C)nc21 [Compound 42]', 'inhibition', '> 70%'),
  ('COn1c(=O)c(-c2cc(NC(=O)c3ccnc(N4CCOCC4)c3)ccc2Cl)cc2cnc(NCCN(C)C)nc21 [Compound 26]', 'inhibition', '> 70%');

Prompt: // returns reported inhibition for input COn1c(=O)c(-c2cc(NC(=O)c3cc(F)cc(C(F)(F)F)c3)ccc2Cl)cc2cnc(NCCN(C)C)nc21 [Compound 28]
Completion: > 70%

Prompt: Note, next up: COn1c(=O)c(-c2cc(NC(=O)c3cc(Cl)nc(NC(C)C)c3)ccc2Cl)cc2cnc(NCCN(C)C)nc21 [Compound 64]
Completion: > 70%

Prompt: Note, next up: COn1c(=O)c(-c2cc(NC(=O)c3ccc(Cl)c(OC(F)(F)F)c3)ccc2Cl)cc2cnc(NCCN(C)C)nc21 [Compound 30]
Completion: > 70%

Prompt: Note, next up: COn1c(=O)c(-c2cc(NC(=O)c3cccc(C(F)(F)F)c3F)ccc2Cl)cc2cnc(NCCN(C)C)nc21 [Compound 39]
Completion: > 70%

Prompt: Note, next up: COn1c(=O)c(-c2cc(NC(=O)c3cc(C(F)(F)F)ccc3F)ccc2Cl)cc2cnc(NCCN(C)C)nc21 [Compound 23]
Completion: > 70%

Prompt: Note, next up: COn1c(=O)c(-c2cc(NC(=O)c3ccc(OCc4cccc(F)c4)c(Cl)c3)ccc2Cl)cc2cnc(NCCN(C)C)nc21 [Compound 32]
Completion: > 70%

Prompt: Note, next up: CCN(CC)c1cc(C(=O)Nc2ccc(Cl)c(-c3cc4cnc(NCCN(C)C)nc4n(OC)c3=O)c2)cc(Cl)n1 [Compound 8]
Completion: > 70%

Prompt: Note, next up: COn1c(=O)c(-c2cc(NC(=O)Nc3ccc(C(C)(C)C)cc3)ccc2Cl)cc2cnc(NCCN(C)C)nc21 [Compound 44]
Completion: > 70%

Prompt: Note, next up: COn1c(=O)c(-c2cc(NC(=O)c3ccc(F)c(C(F)(F)F)c3)ccc2Cl)cc2cnc(NCCN(C)C)nc21 [Compound 17]
Completion: > 70%

Prompt: Note, next up: COn1c(=O)c(-c2cc(NC(=O)Nc3cccc(Cl)c3)ccc2Cl)cc2cnc(NCCN(C)C)nc21 [Compound 43]
Completion: > 70%

----------
- System Under Test: C-Raf (Homo sapiens, UniProt P04049)
- Construct: purchased Proteros biostructures GmbH (selectivity panel service)
- Protocol Summary: Biochemical inhibition, standard selectivity panel (Proteros)
- Set-up: dose or concentration left out as unconfirmed
Measured Metric: inhibition

A selection of reference data follows.
INSERT INTO assay_data (smiles_notation, system_under_test, value_reported) VALUES
  ('COn1c(=O)c(-c2cc(NC(=O)c3ccc(C(C)(C)C)cc3)ccc2Cl)cc2cnc(NCCN(C)C)nc21', 'C-Raf (Homo sapiens, UniProt P04049)', '> 70%'),
  ('COn1c(=O)c(-c2cc(NC(=O)c3cccc(Cl)c3)ccc2Cl)cc2cnc(NCCN(C)C)nc21', 'C-Raf (Homo sapiens, UniProt P04049)', '> 70%'),
  ('COn1c(=O)c(-c2cc(NC(=O)c3cc(C(C)(C)C)nn3-c3ccccc3)ccc2Cl)cc2cnc(NCCN(C)C)nc21', 'C-Raf (Homo sapiens, UniProt P04049)', '~70%');

Prompt: // returns reported inhibition for input `COn1c(=O)c(-c2cc(NC(=O)c3cccc(C(F)(F)F)c3)ccc2Cl)cc2cnc(NCCN(C)C)nc21`
Completion: > 70%

----------
- Tested on: HT-29 [B-Raf V600E mutant]
- Protocol Summary: Anti-proliferative activity, SRB assay, 72 hours
- Format: cell-based
- Condition Details: Homo sapiens, read-out: CELLULAR IC50 [μM] HT-29 [B-Raf V600E mutant]
Measured Metric: IC50

INSERT INTO measurements (compound, system_under_test, measured_metric, value_reported) VALUES
  ('COn1c(=O)c(-c2cc(NC(=O)c3nc4ccc(F)cc4[nH]3)ccc2Cl)cc2cnc(NCCN(C)C)nc21 [Compound 40]', 'HT-29 [B-Raf V600E mutant]', 'IC50', '> 10 µM'),
  ('COn1c(=O)c(-c2cc(NC(=O)c3cc(C(F)(F)F)ccc3F)ccc2Cl)cc2cnc(NCCN(C)C)nc21 [Compound 23]', 'HT-29 [B-Raf V600E mutant]', 'IC50', '< 5 µM'),
  ('COn1c(=O)c(-c2cc(NC(=O)Nc3ccc(C(F)(F)F)cc3)ccc2Cl)cc2cnc(NCCN(C)C)nc21 [Compound 41]', 'HT-29 [B-Raf V600E mutant]', 'IC50', '< 5 µM');

Prompt: Lab request: please report IC50 under test system HT-29 [B-Raf V600E mutant] for COn1c(=O)c(-c2cc(NC(=O)c3ccccc3)ccc2Cl)cc2cnc(NCCN(C)C)nc21 [Compound 33]
Completion: > 10 µM

Prompt: Note, next up: COn1c(=O)c(-c2cc(NC(=O)Nc3ccc(C)c(C(F)(F)F)c3)ccc2Cl)cc2cnc(NCCN(C)C)nc21 [Compound 47]
Completion: < 5 µM

Prompt: Note, next up: COn1c(=O)c(-c2cc(NC(=O)c3ccc(C(C)(C)C)cc3)ccc2Cl)cc2cnc(NCCN(C)C)nc21 [Compound 37]
Completion: < 5 µM

Prompt: Note, next up: COn1c(=O)c(-c2cc(NC(=O)Nc3ccc(Cl)cc3)ccc2Cl)cc2cnc(NCCN(C)C)nc21 [Compound 46]
Completion: < 5 µM
